Item-by-item account of abundance fitness
B1: Homeobox protein cut-like 1, residues 941 to 1008; numbered along this chain, P39880 (parent)
chain: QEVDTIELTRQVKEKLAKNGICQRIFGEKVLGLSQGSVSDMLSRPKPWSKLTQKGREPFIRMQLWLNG

Variants of: B1
Assay info: abundance fitness (aPCA) (normalised: wild type 0, dead -1); higher = more abundant; growth selection in yeast, the domain comes from the species named
Condition notes: Homo sapiens
Respond numerically, and do not add a unit to the figure.

Please supply the value of reported abundance fitness for the item QEVDTIELTRQVKEKLAKNGMCQRIFGEKVLGLSQGSVSDMLSRPKPWSKLTQKGREPFIRMQLWLNG [I21M]
-0.1

Answer with reported abundance fitness of QEVDTIELTRQVKEKLAKNGICQRIFGEKVLGLSQGSVSDMLSDPKPWSKLTQKGREPFIRMQLWLNG [R44D]
0.12

Look up and report measured abundance fitness for this entry: QEVDTIELTRQVKEKLAKNGICQRIFGEKVLGLSQFSVSDMLSRPKPWSKLTQKGREPFIRMQLWLNG [G36F]
-0.026

Please look at this variant and report its abundance fitness: QEVDTIELTRQVKEKLAKNGICQRIFGEKVLNLSQGSVSDMLSRPKPWSKLTQKGREPFIRMQLWLNG [G32N]
-0.204
